meta.source: patent US20260216163A1

system: MV4-11 cells (FLT3 ITD); assay: in vitro standard cytotoxicity (MTS, 72 h), MEN and Gilt single agent or combination, Combination Index; assay type: cell-based, human; settings: Homo sapiens, read-out: IC50 dose level (single agent cytotoxicity)
Task for the reader: assign each of the following compounds its reported IC50.
Provide only the numeric value, understood in nM.

Incoming: Which IC50 value is on record for "CCc1nc(C(N)=O)c(Nc2ccc(N3CCC(N4CCN(C)CC4)CC3)c(OC)c2)nc1NC1CCOCC1" ?
Outgoing: 7.9

Incoming: How about "CC(C)n1c(C2CCNCC2)nc2c([N+](=O)[O-])c(Br)c(Br)cc21" ?
Outgoing: 569

---

tested on: MOLM-13 cells; test: in vitro standard cytotoxicity (MTS, 72 h), MEN and Quizartinib single agent or combination, Combination Index; conditions: Homo sapiens, MOLM-13, 72 h, read-out: IC50 (single agent cytotoxicity)
Answer each item with its documented pIC50.
Entry type: numeric. Quantity: pIC50, the -log10 of concentration in molar units.

Incoming: State the recorded pIC50 for this entry: "CC(C)n1c(C2CCNCC2)nc2c([N+](=O)[O-])c(Br)c(Br)cc21"
Outgoing: 6.29

Incoming: Would you kindly repeat that for "CC(C)(C)c1cc(NC(=O)Nc2ccc(-c3cn4c(n3)sc3cc(OCCN5CCOCC5)ccc34)cc2)no1" ?
Outgoing: 9.02
